- Target: human TREM2/DAP12 fusion protein (human, UniProt O43914 41-113, limits assumed)
- Sequence (O43914 other isoform, or with tags, fused parts or gaps limits assumed): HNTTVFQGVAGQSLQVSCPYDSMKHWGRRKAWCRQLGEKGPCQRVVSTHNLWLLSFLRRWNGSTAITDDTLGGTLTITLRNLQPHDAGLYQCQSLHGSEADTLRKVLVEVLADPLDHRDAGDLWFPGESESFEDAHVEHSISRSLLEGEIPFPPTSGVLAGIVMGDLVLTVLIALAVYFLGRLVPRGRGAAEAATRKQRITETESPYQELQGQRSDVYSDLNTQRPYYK
- Assay Notes: cell-based or functional assay
Examples of binders with documented Soluble IgG, EC50 follow.
Observed Property: Soluble IgG, EC50 (nM)

Binder	Unit Spec	Reported Measurement
AL2p huIgG1 (human mouse chimeric parental antibody) (antibody, V domains shown, Mouse variable region with human IgG1 Fc region; Fab and IgG formats under one id; also called chimeric parental AL2p antibody as huIgG1) VH: QVQLQQSGPELVKPGASLKISCKASGYAFSSSWMNWVKQRPGKGLEWIGRIYPGDGDTNYNGEFRVRATLTADTSSTTAYMQLSSLTSEDSAVYFCARLLRNQPGESYAMDYWGQGASVTVSS VL: DVVMTQTPLSLPVSLGDQASISCRSSQSLVHSNGYTYLHWYLQKPGQSPKLLIYKVSNRFSGVPDRFSGSGSGTDFTLKISRVEADDLGVYFCSQSTRVPYTFGGGTKLEIK	nM	14.6
AL2p-37 (antibody, IgG1, V domains shown, Fab and IgG formats under one id; also called AL2p-37 huIgG1) VH: QVQLVQSGAEVKKPGASVKVSCKASGYAFSSQWMNWVRQAPGQRLEWIGRIYPGGGDTNYAGKFQGRVTITADTSASTAYMELSSLRSEDTAVYYCARLLRNQPGESYAMDYWGQGTLVTVSS VL: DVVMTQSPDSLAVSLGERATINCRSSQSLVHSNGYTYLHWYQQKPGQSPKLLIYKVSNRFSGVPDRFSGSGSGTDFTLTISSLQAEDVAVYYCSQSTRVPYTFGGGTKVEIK	nM	9.41
AL2p-47 huIgG1 (antibody, V domains shown) VH: QVQLVQSGAEVKKPGSSVKVSCKASGYAFSSDWMNWVRQAPGQGLEWMGRIYPGEGDTNYARKFHGRVTITADESTSTAYMELSSLRSEDTAVYYCARLLRNKPGESYAMDYWGQGTLVTVSS VL: DVVMTQTPLSLSVTPGQPASISCRTSQSLVHSNAYTYLHWYLQKPGQSPQLLIYKVSNRVSGVPDRFSGSGSGTDFTLKISRVEAEDVGVYYCSQSTRVPYTFGQGTKLEIKR	nM	6.5
AL2p-61 huIgG1 (antibody, V domains shown) VH: QVQLVQSGAEVKKPGSSVKVSCKASGYAFSSQWMNWVRQAPGQGLEWMGRIYPGEGDTNYARKFQGRVTITADESTSTAYMELSSLRSEDTAVYYCARLLRNQPGESYAMDYWGQGTLVTVSS VL: GVVMTQTPLSLSVTPGQPASISCRSSQSLVHSNQYTYLHWYLQKPGQSPQLLIYKVSNRRSGVPDRFSGSGSGTDFTLKISRVEAEDVGVYYCSQSTRVPYTFGQGTKLEIKR	nM	5.24

Source of measurements: patent US20200317776A1
